- system_name: UniProt Q14164
- Sequence (Q14164 1-716): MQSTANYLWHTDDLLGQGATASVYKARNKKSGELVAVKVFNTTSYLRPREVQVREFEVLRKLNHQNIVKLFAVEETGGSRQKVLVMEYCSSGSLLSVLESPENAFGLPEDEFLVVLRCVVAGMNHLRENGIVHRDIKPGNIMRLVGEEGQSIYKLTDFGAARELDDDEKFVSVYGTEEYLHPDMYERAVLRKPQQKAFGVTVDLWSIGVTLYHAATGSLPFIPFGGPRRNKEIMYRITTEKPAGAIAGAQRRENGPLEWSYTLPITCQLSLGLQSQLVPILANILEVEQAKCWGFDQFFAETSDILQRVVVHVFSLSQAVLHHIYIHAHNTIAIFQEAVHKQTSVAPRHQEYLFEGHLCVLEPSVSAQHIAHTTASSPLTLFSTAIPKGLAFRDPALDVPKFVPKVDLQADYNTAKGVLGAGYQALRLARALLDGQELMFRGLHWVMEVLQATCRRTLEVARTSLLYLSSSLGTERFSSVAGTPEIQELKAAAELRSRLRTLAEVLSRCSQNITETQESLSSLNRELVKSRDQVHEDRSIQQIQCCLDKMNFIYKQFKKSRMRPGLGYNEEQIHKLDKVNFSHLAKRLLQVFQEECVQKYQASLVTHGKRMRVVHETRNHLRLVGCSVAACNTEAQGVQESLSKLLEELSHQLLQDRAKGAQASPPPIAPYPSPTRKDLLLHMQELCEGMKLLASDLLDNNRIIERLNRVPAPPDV
- assay_procedure: IKKe Biochemical Assay
- test_context: read-out: IKKε IC50
Where a name gives a salt, the structure may show the parent alone.
measure: IC50

Use these answered entries as a reference point.
N#Cc1cc(-c2ccnc3cc(-c4ccc(C(=O)O)cc4)oc23)ccc1N1CC[C@H](F)C1 [Compound 107]	< 100 nM
COc1cc(C(=O)N[C@H]2COC[C@@H]2N(C)C)ccc1-c1cc2nccc(-c3ccc(OC4CCOCC4)c(C#N)c3)c2o1 [Compound 346]	< 100 nM
COc1cc(C(=O)N(C)C2CCNCC2)ccc1-c1cc2nccc(-c3ccc(OC4CCOCC4)c(C#N)c3)c2o1 [Compound 41, hydrochloride]	< 100 nM

Look at this molecule and give its reported IC50. COc1cc(C(=O)N(C)CCO)ccc1-c1cc2ncc(C3CC3)c(-c3ccc(NC4CCOCC4)c(C#N)c3)c2o1 [Compound 305]
> 5000 nM

Please do the same for CN(C)C(=O)c1ccc(-c2cc3nccc(-c4ccc(OC5(C)CCOCC5)c(C#N)c4)c3o2)cc1 [Compound 159] as well.
100 to 1000 nM

Please do the same for COc1cc(C(=O)N[C@@H]2CCC[C@@H](O)[C@H]2O)ccc1-c1cc2nccc(-c3ccc(OC4CCOCC4)c(C#N)c3)c2o1 [Compound 54] as well.
< 100 nM

Please do the same for COc1nc(C(=O)N(C)C)ccc1-c1cc2nccc(-c3ccc(N4CC[C@@H](F)C4)c(C#N)c3)c2o1 [Compound 313] as well.
< 100 nM

Please do the same for COc1cc(C(=O)NC2CN3CCC2CC3)ccc1-c1cc2nccc(-c3ccc(N4CC[C@H](F)C4)c(C#N)c3)c2o1 (stereo partly shown) [Compound 72] as well.
< 100 nM

Please do the same for COc1cc(C(=O)N(C)C)cnc1-c1cc2nccc(-c3ccc(NC4CCNC4)c(C#N)c3)c2o1 (stereo not shown) [Compound 432] as well.
< 100 nM

Please do the same for COc1cc(C(=O)N2CCCCN2)cnc1-c1cc2nccc(-c3ccc(OC4CCOCC4)c(C#N)c3)c2o1 [Compound 407, hydrochloride] as well.
< 100 nM

Please do the same for COc1cc(C(=O)NCC2(C)COC2)ccc1-c1cc2nccc(-c3ccc(OC4CCOCC4)c(C#N)c3)c2o1 [Compound 59] as well.
< 100 nM

Please do the same for COc1cc(C(=O)N(C)C)cnc1-c1cc2ncc(OC)c(-c3ccc(NC4CCOCC4)c(C#N)c3)c2o1 [Compound 340] as well.
1000 to 5000 nM

Please do the same for COc1cc(C(=O)N[C@@H]2CCNC[C@@H]2F)ccc1-c1cc2nccc(-c3cc(F)c(NC4CCOCC4)c(C#N)c3)c2o1 (single isomer, unassigned) [Compound 254, hydrochloride] as well.
< 100 nM
